# assayComment: Intravenous pharmacokinetics of verapamil and norverapamil with and without metformin in rats
# conditionLabel: rat, plasma and urine, iv, 20 mg/kg, CLR, rats, iv verapamil 20 mg/kg, without metformin
valueType: CL renal (mL/min/kg)
Give the number; mL/min/kg is assumed, so skip it.

Data request: For COc1ccc(CCNCCCC(C#N)(c2ccc(OC)c(OC)c2)C(C)C)cc1OC (stereo not shown) , what is its reported CL renal?
Data returned: 0.109

====

# assayComment: in vivo
# conditionLabel: rat, plasma, iv, 30 mg/kg
Counter-ions that a name gives are not always drawn.
valueType: Vd (L/kg)
Give the number; L/kg is assumed, so skip it.

Data request: For CN(C)C(=N)N=C(N)N [metformin, Metformin hydrochloride] , what is its reported Vd?
Data returned: 0.349

====

# assayComment: Oral pharmacokinetics of verapamil and norverapamil with and without metformin in rats
# conditionLabel: rat, plasma and urine, po, 20 mg/kg, CLR, rats, oral verapamil 20 mg/kg, without metformin
valueType: CL renal
Entry format: amount then unit.

Data request: For COc1ccc(CCNCCCC(C#N)(c2ccc(OC)c(OC)c2)C(C)C)cc1OC (stereo not shown) , what is its reported CL renal?
Data returned: 0.336 mL/min/kg

====

# assayComment: Oral pharmacokinetics of verapamil and norverapamil with and without metformin in rats
# conditionLabel: rat, plasma, po, 20 mg/kg, AUC, rats, oral verapamil 20 mg/kg, without metformin
valueType: AUC (ng·h/mL)
Give the number; ng·h/mL is assumed, so skip it.

Data request: For COc1ccc(CCNCCCC(C#N)(c2ccc(OC)c(OC)c2)C(C)C)cc1OC (stereo not shown) , what is its reported AUC?
Data returned: 1140

====

# assayComment: Intravenous pharmacokinetics of verapamil and norverapamil with and without metformin in rats
# conditionLabel: rat, plasma, iv, 20 mg/kg, Cmax, rats, iv verapamil 20 mg/kg, without metformin
valueType: Cmax
Entry format: amount then unit.

Data request: For COc1ccc(CCNCCCC(C#N)(c2ccc(OC)c(OC)c2)C(C)C)cc1OC (stereo not shown) , what is its reported Cmax?
Data returned: 1240 ng/mL

====

# assayComment: in vivo
# conditionLabel: rat, plasma, iv, 30 mg/kg
Structures can show the parent of a compound that is named as a salt.
valueType: MRT (min)
Give the number; min is assumed, so skip it.

Data request: For CN(C)C(=N)N=C(N)N [metformin, Metformin hydrochloride] , what is its reported MRT?
Data returned: 21.4

====

# assayComment: Intravenous pharmacokinetics of verapamil and norverapamil with and without metformin in rats
# conditionLabel: rat, plasma and urine, iv, 20 mg/kg, CLR, rats, iv verapamil 20 mg/kg, with metformin 30 mg/kg
valueType: CL renal (mL/h/kg)
Give the number; mL/h/kg is assumed, so skip it.

Data request: For COc1ccc(CCNCCCC(C#N)(c2ccc(OC)c(OC)c2)C(C)C)cc1OC (stereo not shown) [norverapamil] , what is its reported CL renal?
Data returned: 3.76

====

# assayComment: in vivo
# conditionLabel: rat, plasma, po, 30 mg/kg
Structures can show the parent of a compound that is named as a salt.
valueType: AUC (ng·h/mL)
Give the number; ng·h/mL is assumed, so skip it.

Data request: For CN(C)C(=N)N=C(N)N [metformin, Metformin hydrochloride] , what is its reported AUC?
Data returned: 7870

====

# assayComment: Oral pharmacokinetics of verapamil and norverapamil with and without metformin in rats
# conditionLabel: rat, plasma, po, 20 mg/kg, AUC, rats, oral verapamil 20 mg/kg, with metformin 30 mg/kg
valueType: AUC (ng·h/mL)
Give the number; ng·h/mL is assumed, so skip it.

Data request: For COc1ccc(CCNCCCC(C#N)(c2ccc(OC)c(OC)c2)C(C)C)cc1OC (stereo not shown) , what is its reported AUC?
Data returned: 898

====

# assayComment: Oral pharmacokinetics of verapamil and norverapamil with and without metformin in rats
# conditionLabel: rat, plasma, po, 20 mg/kg, Terminal half-life, rats, oral verapamil 20 mg/kg, without metformin
valueType: half-life (h)
Give the number; h is assumed, so skip it.

Data request: For COc1ccc(CCNCCCC(C#N)(c2ccc(OC)c(OC)c2)C(C)C)cc1OC (stereo not shown) , what is its reported half-life?
Data returned: 2.8

====

# assayComment: Oral pharmacokinetics of verapamil and norverapamil with and without metformin in rats
# conditionLabel: rat, plasma and urine, po, 20 mg/kg, CLR, rats, oral verapamil 20 mg/kg, with metformin 30 mg/kg
valueType: CL renal (mL/min/kg)
Give the number; mL/min/kg is assumed, so skip it.

Data request: For COc1ccc(CCNCCCC(C#N)(c2ccc(OC)c(OC)c2)C(C)C)cc1OC (stereo not shown) , what is its reported CL renal?
Data returned: 0.562

====

# assayComment: Intravenous pharmacokinetics of verapamil and norverapamil with and without metformin in rats
# conditionLabel: rat, plasma, iv, 20 mg/kg, Terminal half-life, rats, iv verapamil 20 mg/kg, with metformin 30 mg/kg
valueType: half-life (h)
Give the number; h is assumed, so skip it.

Data request: For COc1ccc(CCNCCCC(C#N)(c2ccc(OC)c(OC)c2)C(C)C)cc1OC (stereo not shown) , what is its reported half-life?
Data returned: 1.05

====

# assayComment: Intravenous pharmacokinetics of verapamil and norverapamil with and without metformin in rats
# conditionLabel: rat, plasma, iv, 20 mg/kg, Cmax, rats, iv verapamil 20 mg/kg, with metformin 30 mg/kg
valueType: Cmax (ng/mL)
Give the number; ng/mL is assumed, so skip it.

Data request: For COc1ccc(CCNCCCC(C#N)(c2ccc(OC)c(OC)c2)C(C)C)cc1OC (stereo not shown) [norverapamil] , what is its reported Cmax?
Data returned: 1090

# credit: paper PMC7284374
